Where these numbers come from: BigSolDB 2.1

conditions: in sec-butanol, 298.2 K
Reported property: solubility (mole fraction)
// no unit, no text: just the number

For reference, reported solubility (mole fraction) for O=C1CCC(c2ccccc2)=NN1 stands at 0.00555

* * *

conditions: in ethanol, 303.2 K
Reported property: solubility (mole fraction)
// no unit, no text: just the number

For reference, reported solubility (mole fraction) for O=C1CCC(c2ccccc2)=NN1 stands at 0.00529

* * *

conditions: in ethylene glycol, 298.2 K
Reported property: solubility (mole fraction)
// no unit, no text: just the number

For reference, reported solubility (mole fraction) for O=C1CCC(c2ccccc2)=NN1 stands at 0.00836

* * *

settings: in isopropanol, 293.2 K
Reported property: solubility (mole fraction)
// no unit, no text: just the number

For reference, reported solubility (mole fraction) for O=C1CCC(c2ccccc2)=NN1 stands at 0.0031

* * *

conditions: in water, 293.2 K
Reported property: solubility (mole fraction)

For reference, reported solubility (mole fraction) for O=C1CCC(c2ccccc2)=NN1 stands at 7.24e-07

* * *

conditions: in DMSO, 313.2 K
Reported property: solubility (mole fraction)

For reference, reported solubility (mole fraction) for O=C1CCC(c2ccccc2)=NN1 stands at 0.677

* * *

settings: in transcutol, 313.2 K
Reported property: solubility (mole fraction)
// no unit, no text: just the number

For reference, reported solubility (mole fraction) for O=C1CCC(c2ccccc2)=NN1 stands at 0.524

* * *

details: in sec-butanol, 293.2 K
Reported property: solubility (mole fraction)
// no unit, no text: just the number

For reference, reported solubility (mole fraction) for O=C1CCC(c2ccccc2)=NN1 stands at 0.00512

* * *

details: in ethanol, 313.2 K
Reported property: solubility (mole fraction)
// no unit, no text: just the number

For reference, reported solubility (mole fraction) for O=C1CCC(c2ccccc2)=NN1 stands at 0.00696

* * *

conditions: in sec-butanol, 303.2 K
Reported property: solubility (mole fraction)
// no unit, no text: just the number

For reference, reported solubility (mole fraction) for O=C1CCC(c2ccccc2)=NN1 stands at 0.00618

* * *

settings: in propylene glycol, 298.2 K
Reported property: solubility (mole fraction)
// no unit, no text: just the number

For reference, reported solubility (mole fraction) for O=C1CCC(c2ccccc2)=NN1 stands at 0.00732

* * *

settings: in ethyl acetate, 298.2 K
Reported property: solubility (mole fraction)
// no unit, no text: just the number

For reference, reported solubility (mole fraction) for O=C1CCC(c2ccccc2)=NN1 stands at 0.00994

* * *

settings: in sec-butanol, 313.2 K
Reported property: solubility (mole fraction)
// no unit, no text: just the number

For reference, reported solubility (mole fraction) for O=C1CCC(c2ccccc2)=NN1 stands at 0.00778

* * *

conditions: in isopropanol, 303.2 K
Reported property: solubility (mole fraction)
// no unit, no text: just the number

For reference, reported solubility (mole fraction) for O=C1CCC(c2ccccc2)=NN1 stands at 0.0046

* * *

conditions: in n-butanol, 303.2 K
Reported property: solubility (mole fraction)
// no unit, no text: just the number

For reference, reported solubility (mole fraction) for O=C1CCC(c2ccccc2)=NN1 stands at 0.00601

* * *

conditions: in ethylene glycol, 313.2 K
Reported property: solubility (mole fraction)
// no unit, no text: just the number

For reference, reported solubility (mole fraction) for O=C1CCC(c2ccccc2)=NN1 stands at 0.0109

* * *

settings: in PEG-400, 313.2 K
Reported property: solubility (mole fraction)
// no unit, no text: just the number

For reference, reported solubility (mole fraction) for O=C1CCC(c2ccccc2)=NN1 stands at 0.0847

* * *

details: in transcutol, 298.2 K
Reported property: solubility (mole fraction)
// no unit, no text: just the number

For reference, reported solubility (mole fraction) for O=C1CCC(c2ccccc2)=NN1 stands at 0.451

* * *

conditions: in ethylene glycol, 303.2 K
Reported property: solubility (mole fraction)

For reference, reported solubility (mole fraction) for O=C1CCC(c2ccccc2)=NN1 stands at 0.00921

* * *

details: in sec-butanol, 308.2 K
Reported property: solubility (mole fraction)
// no unit, no text: just the number

For reference, reported solubility (mole fraction) for O=C1CCC(c2ccccc2)=NN1 stands at 0.00687

* * *

conditions: in water, 298.2 K
Reported property: solubility (mole fraction)
// no unit, no text: just the number

For reference, reported solubility (mole fraction) for O=C1CCC(c2ccccc2)=NN1 stands at 9.18e-07

* * *

conditions: in ethanol, 298.2 K
Reported property: solubility (mole fraction)
// no unit, no text: just the number

For reference, reported solubility (mole fraction) for O=C1CCC(c2ccccc2)=NN1 stands at 0.00466
